Values were extracted from PubChem BioAssay (NCI).

Readings of growth for the listed molecules
Tested on: HCT-15 colon
Assay: NCI-60 one-dose screen, 48 h (100 = growth as untreated, 0 = no growth, -100 = all killed)
Conditions: 10 µM
Protocol: Growth inhibition of the HCT-15 human tumor cell line is measured as a screen for anti-cancer activity. Cells are grown in 96 well plates and exposed to the test compound for 48 hours. Compounds are tested at a single concentration, which is 10^-5 M for most compounds. The reported endpoint is percent growth (GI% or GIPRCNT), where numbers from 0 - 100% represent growth inhibition, and numbers from -100% - 0 represent cell death. For example, a value of 40 represents 60% growth inhibition. […]
Compounds without any hit were thinned out: in the full panel of roughly 83,000, 20% have a hit.
All answers are understood in %, so give the number only.

These recorded examples may help you get a feel for the data.
[[record]]
molecule = "CCOC(=O)c1c(C(F)(F)F)n([O-])c2ccc(OC)cc2[n+]1=O"
unit_of_measure = "%"
recorded_result = 23.7

[[record]]
molecule = "O=C(NC1CCN(Cc2ccccc2)CC1)c1cc(-c2ccncc2)nc2ccc(Cl)cc12"
unit_of_measure = "%"
recorded_result = 24.2

[[record]]
molecule = "COc1cc(NS(C)(=O)=O)ccc1Nc1c2ccc(Cl)cc2nc2c(OC)cccc12"
unit_of_measure = "%"
recorded_result = -15.4

[[record]]
molecule = "COc1cc(Nc2ccnc(N3CCN(c4ccnc5cc(Cl)ccc45)CC3)n2)cc(OC)c1"
unit_of_measure = "%"
recorded_result = 9.9

[[record]]
molecule = "COc1ccc(/C=C(\\c2cc(OC)c(OC)c(OC)c2)c2nnc(-c3cccs3)o2)cc1"
unit_of_measure = "%"
recorded_result = 103


Data request, read-out growth, for CC(C)OCc1cc(CN2CCN(c3cccc(Cl)c3)CC2)c(O)c2ncccc12
4.08

# input molecule: Fc1ccc(-c2cc(C(Cl)Cl)no2)cc1 ; wanted: its growth
96.9

Which growth reading was recorded for the molecule O=c1oc2cc(OS(=O)(=O)C3CC3)ccc2c2c1CCCCCC2 ?
72.8

Quick one: growth for COc1cc(N=C2C(=O)N(Cc3ccccc3)c3ccccc32)cc(OC)c1OC ?
95.3

Endpoint output: growth of CC(C)/C(=N/O)c1ccccc1 . Value?
110

Reported growth, molecule CCCCCCCCCCCCCC[n+]1ccccc1 : ____
34.5

What value of measured growth is listed for COc1ccc(-c2cc(=O)n(-c3nc4ccccc4[nH]3)[nH]2)cc1OC ?
32

// growth lookup, key: O=[N+]([O-])C1CC2C=CC1C2 (stereo unspecified)
100

Suppose we examine the molecule O=C1c2cc(Cl)ccc2-c2c(O)cc(Cl)cc21 ; what growth value has been reported?
81.6

Bench note: what growth did C[C@H](NC(=O)[C@@H]1CSSC[C@@H](NC(=O)Cc2nc3ccccc3cc2O)C(=O)NCC(=O)N1C)c1ccccc1 show?
102

Name the reported growth value associated with the molecule C=C1C(=O)O[C@H]2[C@H]1CC/C(COC(=O)OCCCCCOC(=O)OC/C1=C/CC[C@@]3(C)O[C@H]3[C@H]3OC(=O)C(=C)[C@@H]3CC1)=C\CC[C@@]1(C)O[C@@H]21
-87.7

* * *

test system: HOP-62 NSCLC; assay: NCI-60 one-dose screen, 48 h (100 = growth as untreated, 0 = no growth, -100 = all killed); conditions: 10 µM
Compounds without any hit were thinned out: in the full panel of roughly 83,000, 20% have a hit.
observed-property: growth (%)
Quick note: give the figure in %, leave out the unit.

Examples from the recorded data:
[[record]]
chemical_string = "Cc1cc(C)c2nc(C)c(C)[n+]([O-])c2c1"
observed_property = "growth"
recorded_result = 73.4

[[record]]
chemical_string = "COc1cc(CSc2nc3ccc(C)cc3c(=O)n2Cc2ccccc2)cc(OC)c1OC"
observed_property = "growth"
recorded_result = 40.5


Note: attention shifts to another entry.
Which value of growth has been reported for COc1cc(C2=Nc3c/c(=C\c4c(O)[nH]c5ccc(Cl)cc45)ccc3=N2)cc(OC)c1OC in the records?
-82

* * *

system: LOX IMVI melanoma; experiment: NCI-60 one-dose screen, 48 h (100 = growth as untreated, 0 = no growth, -100 = all killed); conditions: 10 µM
Compounds without any hit were thinned out: in the full panel of roughly 83,000, 20% have a hit.
Below: a set of entries, each annotated with reported growth.
Response body: numeric value in %, unit text excluded.

Field: example entries. Status: answers known.
[[record]]
compound = "CCOC(=O)C(CCC1=NC(C)(C)CC(C)O1)C(=O)OCC (centres undefined)"
unit_of_measure = "%"
recorded_result = 90.1

[[record]]
compound = "Fc1ccc2[nH]c3c(NCCCN4CCOCC4)ncnc3c2c1"
unit_of_measure = "%"
recorded_result = 69.1

[[record]]
compound = "COc1cc(CSc2nc3ccc(C)cc3c(=O)n2-c2ccccc2)cc(OC)c1OC"
unit_of_measure = "%"
recorded_result = 36


Turning now to a further record.
Give the measured growth of COc1nc2c(c(=O)[nH]1)C(c1ccc(Oc3ccnc4cc(Cl)ccc34)c(OC)c1)C=C(c1cc(OC)c(OC)c(OC)c1)N2 (centres undefined) .
95.5

* * *

Reported growth is given for each of the following compounds.
system: SF-268 CNS; assay: NCI-60 one-dose screen, 48 h (100 = growth as untreated, 0 = no growth, -100 = all killed); conditions: 10 µM
About 83,000 compounds went through this panel and 20% of them were active in at least one assay; those are over-represented in the sample as a whole.
Output spec: scalar in %, unitless text.

For orientation, consider the following solved cases.
[[record]]
compound = "C=CCOc1ccc2c(c1)CC=C1[C@@H]2CC[C@]2(C)C(=O)/C(=N/O)C[C@@H]12"
recorded_result = 76.3

[[record]]
compound = "Cn1c(=O)c2[nH]c(C(O)c3ccc(Cl)cc3)nc2n(C)c1=O (stereo not drawn)"
recorded_result = 104

[[record]]
compound = "CCOc1cc(Br)c(C(C)NC(=O)c2cccc(OC)c2)cc1OCC (stereo not drawn)"
recorded_result = 75.5

[[record]]
compound = "C[C@@H]1C(=O)N(C[C@H](Cc2ccccc2)NC(=O)OCc2ccccc2)[C@]1(Cc1ccccc1)C(=O)OCc1ccccc1"
recorded_result = 52.2

[[record]]
compound = "COc1cc(Cn2c(-c3ccccc3)c(Cl)c3c2-c2oncc2CC3)cc(OC)c1"
recorded_result = 68.8

[[record]]
compound = "NCCNc1ccc2cc(-c3nc4ccccc4[nH]3)c(=O)oc2c1"
recorded_result = 92.3

[[record]]
compound = "COc1ccc(-c2nnc(COc3ccc(NC(=O)Nc4ccccc4)cc3F)o2)cc1"
recorded_result = 78.6


Could you now consider this next compound?
What measured growth goes with O=C1/C(=C/c2cccs2)CCC/C1=C\c1cccs1 ?
96.2

* * *

test system: 786-0 renal; test: NCI-60 one-dose screen, 48 h; conditions: 10 µM
This is part of a sample that, as a whole, favours compounds with a hit. Of some 83,000 tested, about 20% had one in any assay. Activity calls are given as the source filed them. Rule for the calls: active = growth percent below 10; inactive = the rest.
Please answer using one outcome listed in active, inactive

Sample answers from the record:
[[record]]
compound = "CC1(CO)CCCC12OCCO2 (stereo not drawn)"
label = "inactive"

[[record]]
compound = "CN(C)c1ccc2c(c1)OC(N)=C(C#N)C2c1ccc2c(c1)CCO2 (stereo not drawn)"
label = "inactive"


Now for another entry.
Entry Cc1cc(/C=C2\SC(=Nc3ccccc3)N(C3CCCC3)C2=O)c(C)n1-c1ccc(Cl)cc1 : call = ?
active

* * *

growth: recorded values
system: COLO 205 colon; assay: NCI-60 one-dose screen, 48 h (100 = growth as untreated, 0 = no growth, -100 = all killed); conditions: 10 µM
The panel holds about 83,000 compounds, 20% with a hit somewhere; the sample as a whole holds those more often.
# unit: % | format: bare number

[[record]]
molecule = "COC(=O)[C@]12CC[C@@H](C)[C@H](C)[C@@H]1C1=CC[C@@H]3[C@@]4(C)CC(=O)[C@H](O)[C@@](C)(CO)[C@@H]4C(=O)C[C@@]3(C)[C@]1(C)CC2"
recorded_result = -64.6

[[record]]
molecule = "CC1(C)CNC(=O)N1"
recorded_result = 101


// map COC1OC2COC(c3ccccc3)OC2C(=O)C1NC(=O)c1ccccc1 (stereo not drawn) to recorded growth (system: COLO 205 colon)
97.2

Form field: growth recorded for CCc1ccc(-c2nnc(COc3ccc(-c4nc5ccccc5[nH]4)cc3OC)o2)cc1 with COLO 205 colon (enter value)
64.4

Kindly state the measured growth obtained for Cc1ccc(NC(=O)/C=N/O)cc1C with COLO 205 colon.
105

* * *

tested on: TK-10 renal; assay: NCI-60 one-dose screen, 48 h (100 = growth as untreated, 0 = no growth, -100 = all killed); conditions: 10 µM
Compounds without any hit were thinned out: in the full panel of roughly 83,000, 20% have a hit. Calls of active or inactive are those of the source. The calls were made as follows: active = growth percent below 10; inactive = the rest.
observed-property: growth

Below: 5 compounds and their reported growth.
[[record]]
compound = "COC(=O)[C@]12CC[C@@H](C)[C@H](C)[C@@H]1C1=CC[C@@H]3[C@@]4(C)CC(=O)[C@H](O)[C@@](C)(CO)[C@@H]4C(=O)C[C@@]3(C)[C@]1(C)CC2"
recorded_result = "22.1% (inactive)"

[[record]]
compound = "NS(=O)(=O)c1ccc(N2N=C(c3ccc(-c4ccccc4)cc3)CC2c2ccc(Cl)cc2)cc1 (centres undefined)"
recorded_result = "112% (inactive)"

[[record]]
compound = "COC(=O)c1cnc2c(c1)Oc1ccccc1-c1ccnn1-2"
recorded_result = "95.3% (inactive)"

[[record]]
compound = "CCCCCCCOc1cccc(/C=C2/C(=O)N=C3SCCCN32)c1"
recorded_result = "75.7% (inactive)"

[[record]]
compound = "FC(F)(F)c1ccc(-c2ncc(-c3ccc(C(F)(F)F)cc3)c(NCc3cc(C(F)(F)F)cc(C(F)(F)F)c3)n2)cc1"
recorded_result = "86.9% (inactive)"


Please look up its growth: COc1cccc(-c2nnc(COc3ccc(-c4nc5ccccc5[nH]4)cc3OC)o2)c1
132% (inactive)

Query (compound): CCCN(CCC)CCCNC(=O)c1cc2c(-c3ccc(OC)c(OC)c3)nn(C)c2s1 ; field requested: growth
55.8% (inactive)

Need growth, item CC(=O)O[C@H]1CC[C@@]2(C)[C@@H](CC[C@@H]3[C@@H]2CC[C@]2(C)C=C(C=O)C[C@@H]32)C1
120% (inactive)

Given Nc1cc(O)cc(O)c1 , state its recorded growth.
87.4% (inactive)
